tested on: EPLC-272H; experiment: relative viability (nuclei count vs DMSO), 5 days (fraction); higher = more cells survive; details: first compound 0.04 µM
PROPERTY: relative viability

[[record]]
compound = "C[C@@H]1CN(CC(=O)Nc2ccc3c(c2)Cc2cccc(-c4cc(=O)cc(N5CCOCC5)o4)c2S3)C[C@H](C)O1 + O=C(CCCCCCC(=O)Nc1ccccc1)NO [Vorinostat] (partner 1 µM)"
val = 0.457

[[record]]
compound = "COc1cc(N2CCC(C(N)=O)CC2)ccc1Nc1nc(N)c(Cl)c(Nc2ccccc2S(=O)(=O)C(C)C)n1 [HG-5-88-01] + CS(=O)(=O)CCNCc1ccc(-c2ccc3ncnc(Nc4ccc(OCc5cccc(F)c5)c(Cl)c4)c3c2)o1 [Lapatinib] (partner 2 µM)"
val = 0.871


Values from the supplement of paper PMC10307832
